# assay system: DN-III quality control recombinant protein (produced by Fapon Biotech InC.) (dengue virus)
# assay comment: BLI, AMC sensor, antibody captured

binder | kon [M⁻¹ s⁻¹]
Mutation 1-12 (antibody, V domains shown) VH: EVQLQQSGTELVRPGALVKLSCKASGFNIKDYYVHWVKQRPRQGLEWIGWIDPENGKTLYDPKFQDKASITSDTSTNTAYLQLRSLTSEDTAVYYCVTAYFRFVYWGQGTLVTVSA VL: QIVLTQSPAIMSAFPGERVTMTCSASTSVRYMYWHQQKPGSSPRLLIYDTSNIASGVPVRFSGSGSGTSYSLTISRDEAMDAATYYCQQWSSTPRTFGGGTKLEIKR | 41800
Mutation 1-40 (antibody, V domains shown) VH: EVQLQQSGTELVRPGALVKLSCKASGFNIKDYYIHWVKQRPRQGLEWIGWIDPENGKTLYDPKFQDKASITSDTSTNTAYLQLRSLTSEDTAVYYCVTAYVRFVYWGQGTLVTVSA VL: QIVLTQSPAIMSAFPGERVTMTCSASSSVRYMYWHQQKPGSSPRLLIYDTSNVASGVPVRFSGSGSGTSYSLTISRDEAMDAATYYCQQWSSTPRTFGGGTKLEIKR | 432000
